MEASUREMENT_TARGET: CB1 receptors (Mus musculus, UniProt P47746)
Construct: expressed in transfected cells
Sequence (P47746 whole entry): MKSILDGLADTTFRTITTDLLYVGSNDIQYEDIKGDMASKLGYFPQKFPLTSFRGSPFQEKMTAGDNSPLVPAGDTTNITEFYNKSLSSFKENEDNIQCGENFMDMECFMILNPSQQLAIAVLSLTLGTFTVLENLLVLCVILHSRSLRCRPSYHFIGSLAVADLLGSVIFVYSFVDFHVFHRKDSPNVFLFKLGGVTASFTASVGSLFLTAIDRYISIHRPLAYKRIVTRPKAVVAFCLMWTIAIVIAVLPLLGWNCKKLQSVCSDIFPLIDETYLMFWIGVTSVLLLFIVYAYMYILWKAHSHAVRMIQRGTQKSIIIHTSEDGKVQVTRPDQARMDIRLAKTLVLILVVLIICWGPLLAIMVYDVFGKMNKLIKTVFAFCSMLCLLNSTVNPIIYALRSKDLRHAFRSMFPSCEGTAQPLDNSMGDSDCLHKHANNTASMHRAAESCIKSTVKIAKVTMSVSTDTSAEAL
PROTOCOL_TEXT: Radioligand saturation binding with [3H]CP-55,940 on membranes of CB1-expressing DBT subclones
ASSAY_CONDITIONS: CB1-low subclone E3; mean of 3–5 determinations
PROPERTY_LABEL: pKd
pKd field: float, defined as -log10 of concentration (mol/L).

Request: I am curious: what pKd value has been reported for CCCCCCC(C)(C)c1ccc([C@@H]2C[C@H](O)CC[C@H]2CCCO)c(O)c1 [[^3H]CP-55,940] ?
Response: 9.10

---

MEASUREMENT_TARGET: CB1 receptors (Mus musculus)
Construct: expressed in transfected cells
PROTOCOL_TEXT: Radioligand saturation binding with [3H]CP-55,940 on membranes of CB1-expressing DBT subclones
ASSAY_CONDITIONS: CB1-mid subclone E7; mean of 3–5 determinations
Description: Cells (10^6) were expanded in 10 cm dishes using 10 ml culture media. […] Total RNA from each sample (2.5 ng) was reverse transcribed in the same 10 µl quantitative PCR reaction mix using the Brilliant Single-Step Quantitative RT-PCR Core Reagent Kit (Stratagene, La Jolla, CA). […] Radioactivity on filters was measured using scintillation counter.
PROPERTY_LABEL: Kd
Please state the number and follow it with the unit.

Request: # value lookup — system CB1 receptors (Mus musculus), readout Kd, item CCCCCCC(C)(C)c1ccc([C@@H]2C[C@H](O)CC[C@H]2CCCO)c(O)c1 [[^3H]CP-55,940]
Response: 0.8 nM

---

MEASUREMENT_TARGET: CB2 receptors (Mus musculus)
Construct: expressed in transfected cells
Sequence (P47936 whole entry): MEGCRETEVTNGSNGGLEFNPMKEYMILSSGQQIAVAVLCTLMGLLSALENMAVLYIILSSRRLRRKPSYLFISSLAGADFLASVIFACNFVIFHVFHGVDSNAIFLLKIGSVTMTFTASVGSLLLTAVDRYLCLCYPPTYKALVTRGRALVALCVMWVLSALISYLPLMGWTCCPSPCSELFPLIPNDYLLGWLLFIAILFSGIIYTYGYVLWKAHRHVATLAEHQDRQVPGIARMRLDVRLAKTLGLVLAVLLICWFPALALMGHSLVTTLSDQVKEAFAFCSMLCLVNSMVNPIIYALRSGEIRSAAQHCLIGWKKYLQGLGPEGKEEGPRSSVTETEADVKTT
PROTOCOL_TEXT: Radioligand saturation binding with [3H]CP-55,940 on membranes of CB2-expressing DBT subclones
ASSAY_CONDITIONS: CB2-low subclone 2G5; mean of 3–5 determinations
PROPERTY_LABEL: Kd (nM)
Give the number; nM is assumed, so skip it.

Request: # value lookup — system CB2 receptors (Mus musculus), readout Kd, item CCCCCCC(C)(C)c1ccc([C@@H]2C[C@H](O)CC[C@H]2CCCO)c(O)c1 [[^3H]CP-55,940]
Response: 0.8

Values compiled from paper PMC2806825.
